Target: recombinant human tumor necrosis factor-α (Biosource, USA) (human, UniProt P01375 77-233)
Sequence (P01375 77-233 limits assumed): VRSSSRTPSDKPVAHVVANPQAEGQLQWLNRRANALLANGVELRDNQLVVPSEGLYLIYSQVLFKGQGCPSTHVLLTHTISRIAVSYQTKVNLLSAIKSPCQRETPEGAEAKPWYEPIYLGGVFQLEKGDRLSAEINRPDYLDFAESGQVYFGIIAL
Assay: cell-based or functional assay
property: IC50 (concentration of the antibodies inhibiting cell death by 50%), WHEI 164 cells, MTT (ng/mL)

- binder: "humanized antibody YHB1411-2 (antibody, V domains shown, Human heavy and kappa light constant regions come from pHAB-HC and pHAB-KC; also called YBB1411-2) VH: QVQLVQSGPELKKPGASVKVSCKASGYTFTHYGMNWVRQAPGKGLEWMGWINTNTGEPRYDEEFKGRVTMTRDTSASTAYMELSSLRSEDTAVYYCARYDSRGFDCWGQGTTVTVSS VL: DIVMTQSPSSLSASVGERVTITCTASSSISYNYFHWYQQKPGSAPKLWIYSSSNLASGVPSRFSGSGSGTDFTFTISSLQPEDIATYYCHQYERSPWTFGGGTKVEIKR"
  assay value: 5.5
- binder: "humanized antibody YHB1411 (antibody, V domains shown, Human heavy and kappa light constant regions come from pHAB-HC and pHAB-KC) VH: QVQLVQSGPELKKPGASVKVSCKASGYTFTHYGMNWVRQAPGKGLEWMGWINTNTGEPRYDEEFKGRVTMTRDTSASTAYMELSSLRSEDTAVYYCARYDSRGFDCWGQGTTVTVSS VL: QIVMTQSPSSLSASVGERVTITCTASSSISYNYFHWYQQKPGSAPKLWIYSSSNLASGVPSRFSGSGSGTDFTFTISSLQPEDIATYYCHQYERSPWTFGGGTKVEIKR"
  assay value: 6.7
- binder: "humanized antibody YHB1406 (antibody, V domains shown, Human heavy chain constant region comes from vector pHAB-HC and human kappa light chain constant region from pHAB-KC) VH: QVQLVQSGPELKKPGASVKVSCKASGYTFTHYGMNWVRQAPGQGLEWMGWINTNTGEPRYDEEFKGRVTMTRDTSASTAYMELSSLRSEDTAVYYCARYDSRGFDCWGQGTTVTVSS VL: QIVMTQSPSSLSASVGERVTITCTASSSISYNYFHWYQQKPGSAPKLWIYSSSNLASGVPSRFSGSGSGTDFTFTISSLQPEDIATYYCHQYERSPWTFGGGTKVEIKR"
  assay value: 9.2
- binder: "humanized antibody YHB1406-2 (antibody, V domains shown, Human heavy and kappa light constant regions come from pHAB-HC and pHAB-KC) VH: QVQLVQSGPELKKPGASVKVSCKASGYTFTHYGMNWVRQAPGKGLEWMGWINTNTGEPRYDEEFKGRVTMTRDTSASTAYMELSSLRSEDTAVYYCARYDSRGFDCWGQGTTLTVSS VL: DIVMTQSPSSLSASVGERVTITCTASSSISYNYFHWYQQKPGSAPKLWIYSSSNLASGVPSRFSGSGSGTDFTFTISSLQPEDIATYYCHQYERSPWTFGGGTKVEIKR"
  assay value: 6.5
